Origin of measurements: PubChem BioAssay (NCI)

Tested on: ACHN renal
Assay: NCI-60 one-dose screen, 48 h
Conditions: 10 µM unless noted
The panel holds about 83,000 compounds, 20% with a hit somewhere; the sample as a whole holds those more often. Active and inactive are the calls of the source. Rule for the calls: active = growth percent below 10; inactive = the rest. Where a SMILES comes first, the peptide text is derived from it. [ ]: non-standard residue; d: D form. ξ: configuration not given here. ξD = NC(CC(=O)O)C(=O)O
Labels: T (active), F (inactive)

- COMPOUND: "C[C@@]1(CO)[C@H](O)CC[C@@]2(C)[C@H]1CC[C@H]1C[C@@H]3C[C@@]12CC[C@@]3(O)COC(=O)CN"
  LABEL: "F"
- COMPOUND: "CN=C(N)N/N=C(\\C)c1ccc2c(c1)Cc1ccccc1-2"
  LABEL: "T"
- COMPOUND: "O=C1C=CC(=O)c2c(O)c(CO)c(CO)c(O)c21"
  LABEL: "F"
- COMPOUND: "CCCCC(CCc1ccc([N+](=O)[O-])cc1)(C(C)=O)C(=O)OCC (stereo not given)"
  LABEL: "F"
- COMPOUND: "Oc1ccc2c(c1)CCc1ccccc1-2"
  LABEL: "F"
- COMPOUND: "CCOC(=O)C1=NN(c2ccccc2)C(=O)/C1=C\\N1C(=O)/C(=C/c2cccc(O)c2)SC1=S"
  LABEL: "F"
- COMPOUND: "O=[N+]([O-])c1ccc(Oc2ccccc2Cl)c([N+](=O)[O-])c1"
  LABEL: "F"
- COMPOUND: "CN(C)CCSC1=Nc2ccc(Cl)cc2C(c2ccccc2Cl)N(C)C1 (stereo not given)"
  LABEL: "F"
- COMPOUND: "COC(=O)Nc1nc2ccc(C3(c4ccc(F)cc4)OCCO3)cc2[nH]1"
  LABEL: "F"
- COMPOUND: "C1=C(c2ccccc2)c2ccccc2C1"
  LABEL: "F"
- COMPOUND: "c1ccc(C2NCCNC2c2ccccc2)cc1 (stereo not given)"
  LABEL: "F"
- COMPOUND: "O=C(Nc1cccc(C(F)(F)F)c1)Oc1ccc(Cl)c2cccnc12"
  LABEL: "T"
- COMPOUND: "COc1cc(OC)c(/C=C/c2c3ccccc3cc[n+]2C)c(OC)c1"
  LABEL: "F"
- COMPOUND: "O=C(Nc1ccc(Cl)c(Cl)c1)OCc1ccco1"
  LABEL: "F"
- COMPOUND: "CC1=CC(=NC(=O)CBr)C=C/C1=N\\S(=O)(=O)c1ccccc1"
  LABEL: "F"
- COMPOUND: "Cn1ccc(=Nc2ccc(NC(=O)c3ccc(N=c4ccn(C)c5ccc([N+](=O)[O-])cc45)cc3)cc2)cc1"
  LABEL: "F"
- COMPOUND: "C/C=C/c1cc2c(c(=O)o1)C(=O)[C@@H](O)[C@H](C)O2"
  LABEL: "F"
- COMPOUND: "N#CC1c2ccccc2C=CN1C(=O)CCCl (stereo not given)"
  LABEL: "T"
- COMPOUND: "NCC(=O)NC(CC(=O)O)C(=O)O (stereo not given) (H-Gly-[ξD]-OH)"
  LABEL: "F"
- COMPOUND: "COC1CC(C)C(OC)c2cc(O)cc(c2O)NC(=O)/C(C)=C/C=C\\C(C)C(OC(N)=O)/C(C)=C\\C(C)C1OC (stereo not given)"
  LABEL: "F"
- COMPOUND: "Oc1ccccc1N=Cc1ccccc1"
  LABEL: "F"
- COMPOUND: "CCC[CH2][Sn]1([CH2]CCC)[O]C2C(CO)OC(n3ccc(N)nc3=O)C2[O]1 (stereo not given)"
  LABEL: "T"
- COMPOUND: "CCCOC(=O)c1nc(N(CC2CCCCC2)C(=O)NC)sc1/N=C/c1ccccc1"
  LABEL: "F"
- COMPOUND: "O=[N+]([O-])c1ccc([I+]c2ccccc2)cc1"
  LABEL: "F"
- COMPOUND: "O=C(Cc1ccccc1)C(F)(F)F"
  LABEL: "F"
- COMPOUND: "CCSc1nc2ccccc2o1"
  LABEL: "F"
- COMPOUND: "CCN(CC)CCNc1ccc([N+](=O)[O-])c2sc3ccccc3c(=O)c12"
  LABEL: "T"
- COMPOUND: "CCC1CCCCN1C(=S)N/N=C(\\C)c1ccccn1 (stereo not given)"
  LABEL: "T"
- COMPOUND: "N=C1C=C(N)C(=O)c2ccccc21"
  LABEL: "T"
- COMPOUND: "COc1cc2c(c(OC)c1OC)-c1ccc(NCc3ccccc3)c(=O)cc1[C@@H](NC(C)=O)CC2"
  LABEL: "F"
- COMPOUND: "S=C1SCN(Cc2cccs2)CN1Cc1cccs1"
  LABEL: "F"
- COMPOUND: "CCCCCCCCCCCCCCCC[N+]1(C)CCCC1c1cccnc1 (stereo not given)"
  LABEL: "F"
- COMPOUND: "CCC1C[N+]2=C(c3cc(OC)c(OC)cc3CC2)c2c1cc1n2CCc2cc(OC)c(OC)cc2-1 (stereo not given)"
  LABEL: "F"
- COMPOUND: "CCCCCCCCCCCCCCCCCC1=NCCCN1CCO"
  LABEL: "F"
- COMPOUND: "CCCc1cc(=O)oc2c3c(c4c(c12)OC(C)(C)CC4)OC(C)[C@H](C)[C@@H]3O (stereo not given in full)"
  LABEL: "F"
- COMPOUND: "CCCCCCCCCCCC[n+]1ccc(CCCCCCCCC)cc1"
  LABEL: "T"
- COMPOUND: "Oc1ccc2ccccc2c1N=Nc1nccs1"
  LABEL: "F"
- COMPOUND: "COc1cc(/C=C2\\SC(=S)N(/C=C/c3nc4ccccc4[nH]c3=O)C2=O)cc(OC)c1OC"
  LABEL: "F"
- COMPOUND: "Clc1ccc(-n2ncc3c(NCCCN4CCOCC4)ncnc32)cc1"
  LABEL: "F"
- COMPOUND: "COC(=O)C(=[N+]=[N-])C(=O)c1ccc([N+](=O)[O-])o1"
  LABEL: "F"
- COMPOUND: "COc1ccc2nc3cc([N+](=O)[O-])ccc3c(NNc3ccccc3)c2c1"
  LABEL: "F"
- COMPOUND: "NC(=S)Nc1ccc2c(c1)Cc1ccccc1-2"
  LABEL: "F"
- COMPOUND: "CCCCCCCCCCCC1N=C(N)N=C(N)N1c1cccc(Br)c1 (stereo not given)"
  LABEL: "F"
- COMPOUND: "CC[n+]1ccc(Nc2ccc(NC(=O)c3ccc(Nc4cc[n+](CC)c5ccc([N+](=O)[O-])cc45)cc3)cc2)cc1"
  LABEL: "F"
- COMPOUND: "CCCCCCCCCCCCCCCCSC(=NCC)NCC"
  LABEL: "T"
